# self-splicing fitness (ln) values compiled below
assay: self-splicing fitness, log relative to wild type (ln ratio); higher = more splicing; Tetrahymena group I intron in knt gene, E. coli kanamycin selection, DiMSum; sequences stand for … in CUCUCU…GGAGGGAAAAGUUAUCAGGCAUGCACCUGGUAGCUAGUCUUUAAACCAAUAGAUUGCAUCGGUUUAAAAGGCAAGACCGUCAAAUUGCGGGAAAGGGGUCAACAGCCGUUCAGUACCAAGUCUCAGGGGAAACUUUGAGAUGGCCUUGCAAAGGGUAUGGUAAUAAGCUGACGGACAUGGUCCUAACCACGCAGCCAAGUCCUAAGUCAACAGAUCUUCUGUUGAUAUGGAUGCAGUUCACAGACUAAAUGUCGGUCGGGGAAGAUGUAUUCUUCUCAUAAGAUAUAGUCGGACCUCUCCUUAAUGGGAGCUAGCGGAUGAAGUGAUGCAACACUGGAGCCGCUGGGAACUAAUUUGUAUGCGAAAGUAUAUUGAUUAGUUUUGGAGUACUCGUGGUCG; conditions: 37 °C;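 further: selection with 25 µg/mL kanamycin versus none on LB agar overnight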

See these solved cases before continuing.
# SEQUENCE, self-splicing fitness (ln)
data = [
    ("AGUCAGCAAUAUUACGUCAG", -1.86),
    ("UUUCAGCAAUAUUACGUCGA", -1.25),
]

Fill in self-splicing fitness (ln) for record CACGAGCAAUAUUACGGGUA -2.02

Fill in self-splicing fitness (ln) for record UUUGAGCAAUAUUACGGUCG -1.73

Fill in self-splicing fitness (ln) for record UACAAGCAAUAUUACGCGAU -1.3

###

assay: self-splicing fitness, log relative to wild type (ln ratio); higher = more splicing; Tetrahymena group I intron in knt gene, E. coli kanamycin selection, DiMSum; sequences stand for … in CUCUCU…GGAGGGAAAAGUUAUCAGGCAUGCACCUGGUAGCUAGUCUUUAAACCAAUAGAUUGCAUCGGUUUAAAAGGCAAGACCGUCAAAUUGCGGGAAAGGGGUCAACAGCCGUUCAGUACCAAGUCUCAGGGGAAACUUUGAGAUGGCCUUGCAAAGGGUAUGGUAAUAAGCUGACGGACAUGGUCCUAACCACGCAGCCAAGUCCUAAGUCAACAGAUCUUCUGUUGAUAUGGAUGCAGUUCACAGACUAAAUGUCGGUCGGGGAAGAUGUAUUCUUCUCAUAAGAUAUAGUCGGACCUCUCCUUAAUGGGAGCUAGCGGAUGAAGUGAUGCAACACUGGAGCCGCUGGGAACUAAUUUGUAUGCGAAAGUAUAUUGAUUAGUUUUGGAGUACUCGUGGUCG; settings: 37 °C
# self-splicing fitness (ln) values compiled below

See these solved cases before continuing.
# SEQUENCE, self-splicing fitness (ln)
measured = [
    ("AAAUAGCAAUAUUACGAUAA", -0.658),
    ("ACAGAGCAAUAUUACGGUCU", -2.48),
    ("GUUUAGCAAUAUUACGCCAA", -1.58),
]

Fill in self-splicing fitness (ln) for record ACACAGCAAUAUUACGACCU 0.384

Fill in self-splicing fitness (ln) for record AGUCAGCAAUAUUACGUGAG -0.0397

Fill in self-splicing fitness (ln) for record GACAAGCAAUAUUACGCCCG -0.702

Fill in self-splicing fitness (ln) for record UACCAGCAAUAUUACGAUUC -1.55

Fill in self-splicing fitness (ln) for record GACAAGCAAUAUUACGGCAU 0.227

###

# self-splicing fitness (ln) values compiled below
test: self-splicing fitness, log relative to wild type (ln ratio); higher = more splicing; Tetrahymena group I intron in knt gene, E. coli kanamycin selection, DiMSum; sequences stand for … in CUCUCU…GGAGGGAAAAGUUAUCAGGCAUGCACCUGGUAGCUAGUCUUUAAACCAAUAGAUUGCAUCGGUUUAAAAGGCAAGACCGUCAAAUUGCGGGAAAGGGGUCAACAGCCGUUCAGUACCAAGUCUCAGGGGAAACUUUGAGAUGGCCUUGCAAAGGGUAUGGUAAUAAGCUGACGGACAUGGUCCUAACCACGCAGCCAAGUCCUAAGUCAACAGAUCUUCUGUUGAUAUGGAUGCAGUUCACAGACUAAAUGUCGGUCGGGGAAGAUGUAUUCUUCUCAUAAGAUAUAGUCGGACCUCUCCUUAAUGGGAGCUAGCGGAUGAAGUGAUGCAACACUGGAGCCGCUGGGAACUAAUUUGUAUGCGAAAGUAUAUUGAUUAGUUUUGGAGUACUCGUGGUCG; details: 30 °C
# print the numeric value only

# SEQUENCE, self-splicing fitness (ln)
measured = [
    ("AGCUAGCAAUAUUACGUGUG", -2.2),
    ("AGUGAGCAAUAUUACGUGUU", -4.67),
    ("UUUUAGCAAUAUUACGGCUG", -0.732),
    ("AUUCAGCAAUAUUACGUAUU", -0.474),
    ("UCCGAGCAAUAUUACGGGUU", -3.41),
]

Fill in self-splicing fitness (ln) for record ACUUAGCAAUAUUACGGACG -1.59

Fill in self-splicing fitness (ln) for record CAAAAGCAAUAUUACGCGCA -1.05

Fill in self-splicing fitness (ln) for record GAUGAGCAAUAUUACGUGAC -3.05

Fill in self-splicing fitness (ln) for record AACUAGCAAUAUUACGCGCA -0.47

Fill in self-splicing fitness (ln) for record AUAGAGCAAUAUUACGAACA -1.9

Fill in self-splicing fitness (ln) for record UUCCAGCAAUAUUACGUGCG -1.88

Fill in self-splicing fitness (ln) for record UCUCAGCAAUAUUACGAUGG -0.935

Fill in self-splicing fitness (ln) for record UCGCAGCAAUAUUACGCCUA -1.21

Fill in self-splicing fitness (ln) for record GCGUAGCAAUAUUACGUGUG -4.47

Fill in self-splicing fitness (ln) for record ACGUAGCAAUAUUACGUUAG -3.99

Fill in self-splicing fitness (ln) for record UACUAGCAAUAUUACGUUUU -3.49

###

experiment: self-splicing fitness, log relative to wild type (ln ratio); higher = more splicing; Tetrahymena group I intron in knt gene, E. coli kanamycin selection, DiMSum; sequences stand for … in CUCUCU…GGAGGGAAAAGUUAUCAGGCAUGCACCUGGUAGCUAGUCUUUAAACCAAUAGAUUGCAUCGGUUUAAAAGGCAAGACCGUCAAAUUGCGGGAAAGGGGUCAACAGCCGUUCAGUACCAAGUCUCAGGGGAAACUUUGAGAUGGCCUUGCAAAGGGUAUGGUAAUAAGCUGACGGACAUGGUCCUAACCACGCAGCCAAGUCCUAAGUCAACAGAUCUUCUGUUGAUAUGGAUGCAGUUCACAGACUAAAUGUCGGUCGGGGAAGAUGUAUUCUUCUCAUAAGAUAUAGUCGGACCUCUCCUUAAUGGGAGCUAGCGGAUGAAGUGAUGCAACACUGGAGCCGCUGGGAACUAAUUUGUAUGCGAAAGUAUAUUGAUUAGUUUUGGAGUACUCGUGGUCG; conditions: 30 °C
PROPERTY LABEL: self-splicing fitness (ln)
# print the numeric value only

See these solved cases before continuing.
# SEQUENCE, ASSAY VALUE
records = [
    ("CCCAAGCAAUAUUACGCGCA", -4.14),
    ("GUAUAGCAAUAUUACGAGCG", -1.98),
    ("CGACAGCAAUAUUACGUAGA", -3.57),
    ("AGAAAGCAAUAUUACGUAAU", -1.6),
    ("GAGAAGCAAUAUUACGUAAC", -1.62),
]

Fill in self-splicing fitness (ln) for record GUCAAGCAAUAUUACGCGAG -1.83

Fill in self-splicing fitness (ln) for record CUCAAGCAAUAUUACGUAUC -2.94

Fill in self-splicing fitness (ln) for record CCAUAGCAAUAUUACGCCUC -3.21

Fill in self-splicing fitness (ln) for record UGCAAGCAAUAUUACGGGCA -1.4

Fill in self-splicing fitness (ln) for record UGCCAGCAAUAUUACGCACC -2.19

###

assay: self-splicing fitness, log relative to wild type (ln ratio); higher = more splicing; Tetrahymena group I intron in knt gene, E. coli kanamycin selection, DiMSum; sequences stand for … in CUCUCU…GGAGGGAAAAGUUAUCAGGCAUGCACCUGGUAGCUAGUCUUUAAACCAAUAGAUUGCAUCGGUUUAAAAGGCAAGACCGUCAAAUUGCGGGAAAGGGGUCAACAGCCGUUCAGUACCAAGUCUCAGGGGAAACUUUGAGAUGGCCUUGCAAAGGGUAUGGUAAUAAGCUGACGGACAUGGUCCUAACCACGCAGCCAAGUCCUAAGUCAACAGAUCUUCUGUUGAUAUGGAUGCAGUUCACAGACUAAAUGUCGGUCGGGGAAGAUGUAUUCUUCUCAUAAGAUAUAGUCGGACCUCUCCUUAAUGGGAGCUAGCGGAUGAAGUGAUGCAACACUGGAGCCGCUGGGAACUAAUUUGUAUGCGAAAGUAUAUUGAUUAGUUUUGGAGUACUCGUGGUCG; settings: 37 °C
PROPERTY LABEL: self-splicing fitness (ln)
# print the numeric value only

See these solved cases before continuing.
# SEQUENCE, self-splicing fitness (ln)
rows = [
    ("UCAGAGCAAUAUUACGUAUC", -1.41),
    ("GGAAAGCAAUAUUACGUUCU", -3.07),
    ("GCUCAGCAAUAUUACGACAC", 0.564),
    ("CCGGAGCAAUAUUACGAGUU", -2.76),
    ("UAAUAGCAAUAUUACGGGCU", -2.16),
]

Fill in self-splicing fitness (ln) for record UGACAGCAAUAUUACGCCUC -3.24

Fill in self-splicing fitness (ln) for record CAUAAGCAAUAUUACGUAGC -2.96

Fill in self-splicing fitness (ln) for record GGCCAGCAAUAUUACGACUC 0.0572

Fill in self-splicing fitness (ln) for record UCAGAGCAAUAUUACGGGAU -2.58

Fill in self-splicing fitness (ln) for record GGAGAGCAAUAUUACGUACU -1.16
